Provide the recorded CV-1 (IC50) for the entries that follow.
System: CV-1 cells
Experiment: selective killing assay, colony number reduced to 50% of control, normal monkey kidney epithelial cell line CV-1
Assay type: cell-based
Conditions: Table IV; 24 hours treatment
Give bare numbers, in µg/mL.

| COMPOUND | MEASUREMENT LABEL | MEASURED NUMBER |
| --- | --- | --- |
| CCn1c(=Cc2oc3ccccc3[n+]2C)sc(=C2Sc3ccccc3N2C)c1=O [Compound 14] | CV-1 (IC50) | 20 |
| CCn1c(=Cc2oc3ccccc3[n+]2C)sc(=C2Sc3ccccc3N2C)c1=O [Compound 15] | CV-1 (IC50) | 20 |
| CCn1c(=Cc2oc3ccccc3[n+]2C)sc(=C2Sc3ccccc3N2C)c1=O [Compound 13] | CV-1 (IC50) | 20 |
| CCn1c(=CC2=[N+](CC)CCS2)sc(=C2Sc3ccccc3N2C)c1=O [Compound 335] | CV-1 (IC50) | 20 |

Let's switch to this compound now.
Prompt: Reported CV-1 (IC50), compound CCn1c(=Cc2sc3ccccc3[n+]2CC)sc(=C2Sc3ccccc3N2C)c1=O [Compound 2] : ____
Completion: 4

###

Test system: human melanoma LOX
Experiment: survival of nude mice implanted with human melanoma LOX
Type: in vivo, male athymic Swiss nu/nu mouse (human tumor)
Conditions: Mus musculus, ip, 24 h, 5 mg/kg i.p. on day 1, 4, 8, 11; read-out: T/C
Provide the recorded response vs control in vivo at 5 mg/kg for the entries that follow.
One number for each entry, in %.

| CHEMICAL STRUCTURE | response vs control in vivo at 5 mg/kg / % |
| --- | --- |
| CCn1c(=Cc2sc3c4ccccc4ccc3[n+]2CC)sc(=C2Sc3ccccc3N2C)c1=O | 153 |
| CCn1c(=Cc2oc3ccccc3[n+]2C)oc(=C2Sc3ccccc3N2C)c1=O | 132 |
| CCn1c(=Cc2oc3cc4ccccc4cc3[n+]2CC)sc(=C2Sc3ccccc3N2C)c1=O | 179 |
| CCn1c(=Cc2oc3ccccc3[n+]2C)sc(=C2Sc3ccccc3N2C)c1=O | 147 |

Let's switch to this compound now.
Prompt: Reported response vs control in vivo at 5 mg/kg, compound CCn1c(=CC2=[N+](CC)CCS2)sc(=C2Sc3ccccc3N2C)c1=O : ____
Completion: 147

###

System: human melanoma LOX
Test: survival of nude mice implanted with human melanoma LOX
Format: in vivo, male athymic Swiss nu/nu mouse (human tumor)
Settings: Mus musculus, ip, 24 h, 5 mg/kg i.p. on day 1, 4, 8, 10, 12; read-out: T/C
Provide the recorded response vs control in vivo at 5 mg/kg for the entries that follow.

# batch size: 4; output response vs control in vivo at 5 mg/kg per entry
1. CCn1c(=Cc2cc[n+](CC)c3ccccc23)sc(=C2C=Cc3ccccc3N2C)c1=O
2. CCn1c(=Cc2oc3c4ccccc4ccc3[n+]2CC)sc(=C2Oc3ccc4ccccc4c3N2C)c1=O
3. CCn1c(=Cc2scc(C)[n+]2CC)sc(=C2Sc3ccc4ccccc4c3N2C)c1=O
4. CCn1c(=Cc2scc(C)[n+]2CC)sc(=C2Sc3ccccc3N2C)c1=O

Completion:
1. 171%
2. > 340%
3. > 288%
4. > 340%

###

System: EJ cells
Assay: colony assay of Example 1 with human bladder carcinoma EJ cell line;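 note: colony formation assay with 24 h compound exposure at 37 °C, then 7–10 days drug-free regrowth, colonies stained with crystal violet, controls given medium alone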
Assay type: cell-based
Details: Table IV; human bladder carcinoma, 24 hours treatment
Returns: string. Value is TRUE if measured EJ (IC50) is below 0.05 µg/mL, and FALSE if it is greater than or equal to it.

Reference set, count: 3
| COMPOUND | CATEGORY |
| --- | --- |
| CCn1c(=Cc2oc3ccccc3[n+]2C)sc(=C2Sc3ccccc3N2C)c1=O [Compound 15] | FALSE |
| CCn1c(=Cc2oc3ccccc3[n+]2C)sc(=C2Sc3ccccc3N2C)c1=O [Compound 13] | FALSE |
| CCn1c(=Cc2oc3c4ccccc4ccc3[n+]2CC)sc(=C2Sc3ccc4ccccc4c3N2C)c1=O | TRUE |

Prompt: API: query returns whether the compound falls strictly under 0.05 µg/mL in EJ (IC50). Query: CCn1c(=CC2=[N+](CC)CCS2)sc(=C2Sc3ccccc3N2C)c1=O
Completion: FALSE

###

System: MCF-7 cells
Test: colony assay of Example 1 with human breast carcinoma MCF-7 cell line
Type: cell-based
Settings: CV-1/MCF-7
MEASUREMENT LABEL: Selectivity
Answers are plain numbers.

// solved cases for Selectivity follow
| CHEMICAL STRUCTURE | Selectivity |
| --- | --- |
| CCn1c(=Cc2[se]c3ccccc3[n+]2CC)sc(=C2Sc3ccccc3N2C)c1=O | 333 |
| CCN1C(=c2sc(=Cc3oc4ccccc4[n+]3CC)n(CC)c2=O)Sc2ccccc21 | 167 |
| CCn1c(=Cc2sc3c4ccccc4ccc3[n+]2CC)sc(=C2Sc3ccc4ccccc4c3N2C)c1=O | 312 |

Let's switch to this compound now.
Prompt: Reported Selectivity, compound CCn1c(=CC2=[N+](CC)CCS2)sc(=C2Oc3ccc4ccccc4c3N2C)c1=O : ____
Completion: 200

###

Test system: CV-1 cells
Assay: selective killing assay, colony number reduced to 50% of control, normal monkey kidney epithelial cell line CV-1
Format: cell-based
Conditions: Primates, CV-1, 24 h, Table VII; 24 hours treatment
MEASUREMENT LABEL: IC50 (µg/mL)
Answers are plain numbers, in µg/mL.

// solved cases for IC50 follow
| CHEMICAL STRUCTURE | MEASURED NUMBER |
| --- | --- |
| CCn1c(=Cc2ccc3ccccc3[n+]2CC)sc(=C2Sc3ccccc3N2C)c1=O | 8 |
| CCn1c(=CC2=[N+](CC)CCS2)sc(=C2Sc3ccccc3N2C)c1=O | 20 |
| CCn1c(=C2CC[n+]3c2sc2ccccc23)sc(=C2Sc3ccccc3N2C)c1=O | 10 |

Prompt: Reported IC50, molecule CCn1c(=Cc2oc3cc4ccccc4cc3[n+]2CC)sc(=C2C=Cc3ccccc3N2C)c1=O : ____
Completion: 8

###

System: CV-1 cells
Experiment: selective killing assay, colony number reduced to 50% of control, normal monkey kidney epithelial cell line CV-1
Type: cell-based
Conditions: Primates, CV-1, Table III; normal monkey kidney epithelial cells, 24 hours treatment, colony count after 7 to 10 days
Provide the recorded IC50 for the entries that follow.

// solved cases for IC50 follow
| COMPOUND | MEASUREMENT LABEL | RESULT |
| --- | --- | --- |
| CCn1c(=Cc2sc3ccc4ccccc4c3[n+]2CC)sc(=C2Sc3c(ccc4ccccc34)N2C)c1=O [Compound 255] | IC50 | 5 µg/mL |
| CCn1c(=Cc2sc3c4ccccc4ccc3[n+]2CC)sc(=C2Oc3ccc4ccccc4c3N2C)c1=O [Compound 115] | IC50 | 6 µg/mL |
| CCn1c(=Cc2cc[n+](CC)c3ccccc23)sc(=C2Sc3ccc4ccccc4c3N2C)c1=O [Compound 90] | IC50 | 8 µg/mL |
| CCn1c(=Cc2cccc[n+]2CC)sc(=C2Sc3ccccc3N2C)c1=O [Compound 18] | IC50 | 20 µg/mL |

# batch size: 4; output IC50 per entry
1. CCn1c(=CC2=[N+](CC)CCS2)sc(=C2Oc3ccc4ccccc4c3N2C)c1=O [Compound 215]
2. CCn1c(=Cc2sc3c4ccccc4ccc3[n+]2CC)sc(=C2Sc3c(ccc4ccccc34)N2C)c1=O [Compound 99]
3. CCn1c(=CC2=[N+](CC)C(C)CS2)sc(=C2Sc3ccc4ccccc4c3N2C)c1=O (centres unmarked) [Compound 309]
4. CCn1c(=Cc2sc3ccccc3[n+]2CC)sc(=C2Oc3ccc(OC)cc3N2C)c1=O [Compound 105]

Completion:
1: 10 µg/mL; 2: 10 µg/mL; 3: 4 µg/mL; 4: 6 µg/mL

###

Test system: human melanoma LOX
Experiment: survival of nude mice implanted with human melanoma LOX
Format: in vivo, male athymic Swiss nu/nu mouse (human tumor)
Details: Mus musculus, ip, 24 h, 5 mg/kg i.p. on day 1, 4, 8, 11, 15; read-out: T/C
MEASUREMENT LABEL: response vs control in vivo at 5 mg/kg
Hi, when you answer, please include the unit after the number. Thanks!

# batch size: 4; output response vs control in vivo at 5 mg/kg per entry
1. CCn1c(=Cc2sc3ccccc3[n+]2CC)sc(=C2Sc3ccccc3N2C)c1=O
2. CCn1c(=Cc2oc3ccccc3[n+]2C)sc(=C2Sc3ccccc3N2C)c1=O
3. CCn1c(=Cc2oc3c4ccccc4ccc3[n+]2CC)sc(=C2Sc3ccc4ccccc4c3N2C)c1=O
4. CCn1c(=Cc2sc3c4ccccc4ccc3[n+]2CC)sc(=C2Sc3ccc4ccccc4c3N2C)c1=O

Completion:
1: 163%; 2: 142%; 3: 174%; 4: 142%
